// MIC lookup, one value per entry
test system: Staphylococcus aureus; assay: Antimicrobial activity against methicillin-resistant Staphylococcus aureus GU 53016 after 7 days by broth microdilution method; assay type: functional; settings: GU 53016, 168 h

// solved cases for MIC follow
compound	assayed.system	observable	reported.value
CC1=CC[C@H]([C@](C)(O)CCC(O)C(C)(C)O)CC1 (stereo partly drawn)	Staphylococcus aureus	MIC	> 118 mg/L
CC[C@H](C)[C@@H](NC(=O)[C@@](C)(CC)NC(=O)[C@@H]1C[C@@H](O)CN1C(=O)[C@@](C)(CC)NC(=O)[C@@](C)(CC)NC(=O)C(C)(C)NC(=O)[C@@H]1C[C@@H](O)CN1C(=O)[C@@](C)(CC)NC(=O)[C@H](CC(C)C)NC(=O)[C@@H]1C[C@@H](O)CN1C(=O)[C@](C)(CC)NC(=O)[C@H](CC(C)C)NC(=O)[C@@H]1C[C@@H](O)CN1C(=O)C(C)(C)NC(C)=O)C(=O)O[C@@H]([C@H](O)[C@H](O)CO)[C@H](O)CO	Staphylococcus aureus	MIC	> 118 mg/L

Value lookup for MIC; key = CC[C@H](C)[C@@H](NC(=O)[C@@](C)(CC)NC(=O)[C@@H]1C[C@@H](O)CN1C(=O)C(C)(C)NC(=O)[C@@](C)(CC)NC(=O)C(C)(C)NC(=O)[C@@H]1C[C@@H](O)CN1C(=O)[C@@](C)(CC)NC(=O)[C@H](CC(C)C)NC(=O)[C@@H]1C[C@@H](O)CN1C(=O)[C@](C)(CC)NC(=O)[C@H](CC(C)C)NC(=O)[C@@H]1C[C@@H](O)CN1C(=O)C(C)(C)NC(C)=O)C(=O)O[C@@H]([C@H](O)[C@H](O)CO)[C@H](O)CO
> 118 mg/L

---

tested on: Staphylococcus aureus; assay: Antimicrobial activity against Staphylococcus aureus ATCC 6538 after 7 days by broth microdilution method; assay type: functional; details: ATCC 6538, 168 h
// MIC lookup, one value per entry

// solved cases for MIC follow
molecule	assayed.system	MIC
CC1=CC[C@H]([C@](C)(O)CCC(O)C(C)(C)O)CC1 (stereo partly drawn)	Staphylococcus aureus	> 118 µg/mL
CC[C@H](C)[C@@H](NC(=O)[C@@](C)(CC)NC(=O)[C@@H]1C[C@@H](O)CN1C(=O)[C@@](C)(CC)NC(=O)[C@@](C)(CC)NC(=O)C(C)(C)NC(=O)[C@@H]1C[C@@H](O)CN1C(=O)[C@@](C)(CC)NC(=O)[C@H](CC(C)C)NC(=O)[C@@H]1C[C@@H](O)CN1C(=O)[C@](C)(CC)NC(=O)[C@H](CC(C)C)NC(=O)[C@@H]1C[C@@H](O)CN1C(=O)C(C)(C)NC(C)=O)C(=O)O[C@@H]([C@H](O)[C@H](O)CO)[C@H](O)CO	Staphylococcus aureus	> 118 µg/mL

Value lookup for MIC; key = CC[C@H](C)[C@@H](NC(=O)[C@@](C)(CC)NC(=O)[C@@H]1C[C@@H](O)CN1C(=O)C(C)(C)NC(=O)[C@@](C)(CC)NC(=O)C(C)(C)NC(=O)[C@@H]1C[C@@H](O)CN1C(=O)[C@@](C)(CC)NC(=O)[C@H](CC(C)C)NC(=O)[C@@H]1C[C@@H](O)CN1C(=O)[C@](C)(CC)NC(=O)[C@H](CC(C)C)NC(=O)[C@@H]1C[C@@H](O)CN1C(=O)C(C)(C)NC(C)=O)C(=O)O[C@@H]([C@H](O)[C@H](O)CO)[C@H](O)CO [CLONOSTACHIN]
> 118 µg/mL
